- Tested on: MS2 coat protein
- method: apparent Kd, MS2 coat protein; higher = weaker binding; RNA-MaP array; FMN 200 µM where present
- settings: designed as: ON switch for flavin mononucleotide; no ligand
measured_property: apparent Kd (nM)

> print(dat)
                                biosequence  measured.property  experimental.result
1  CCGGGACAUGAGGAUCACCCAUGUUUCGUUUGUAGUAAAACACAGGAUAUGAUGAAACAGGUUUCUCAGAAGGGUGUUCCGAAA        apparent Kd                 81.3
2  GUGGUACAUGAGGAUCACCCAUGUGUGGGCGCAUGAGGAUAUGUCAGUCCCUGAAGUACGAUAGAAGGCAUGGUGA        apparent Kd                  201
3  AUGGUUCUCGUAGGAUAUGUAGGAUAUGCCUACAUGAGGAUCACCCAUGUUCGCAUGGCAGAAGGACAGAAGGACGAUCACCAA        apparent Kd                  365
4  UUGGACGUCGUAGGAUAUGUAGGAUAUUCCUACAUGAGGAUCACCCAUGUAGACAUGGAAGAAGGACAGAAGGACGAUGUCCAU        apparent Kd                 25.9
5  UUGCCUCAGAACAUGAGGAUCACCCAUGUGCUGCGGGCAACGUAGGAUAUGAUGGUAUUAUACCGUCAGAAGGAUGAUGGUACU        apparent Kd                 5.59
6  CCGAUGAUAGGACAGGAUAUGACUGUCGUCACAUGAGGAUCACCCAUGUCCCGGCAAUGCCACCGUUAGAAGGGUCCCAUCUCGG        apparent Kd                 19.1
7  GGCUAACGGGCUAACAUGAGGAUCACCCAUGUGGACUCAUGGUAGGAUAUGCUGUACAAAGUACAGCAGAAGGGCCGGUGAGCC        apparent Kd                  128

* * *

- Tested on: MS2 coat protein
- method: apparent Kd, MS2 coat protein; higher = weaker binding; RNA-MaP array; FMN 200 µM where present
- settings: designed as: OFF switch for flavin mononucleotide; no ligand
Classification field: t = apparent Kd at or over 40 nM; f = apparent Kd under 40 nM.

> print(dat)
                                 biosequence  assigned.label
 1  CUUUUGUGAGGAUAUCAGUAGUAGAACAAUAGUACUACUACUGAGAAGGCACAUGAGGAUCACCCAUGUUUCUC               t
 2  UACAUGAGGAUCACCCAUGUUUUGUCGUGUAUGGUAUUUAUCUAGGAUAUCAAGUUGUUUAUUUAUGAGAAGGAGAAUAUUAAU               f
 3  AAAUUUUGUCAAGGAUAUGUAUAAAAGAGUUGAAAACAUGAGGAUCACCCAUGUAUAUGGUGGGAACAGAAGGUGAAUAAGUAA               t
 4  AGAUAAUAGCAGAAGGGCCAUGGACAUGAGGAUCACCCAUGUAACGGUGGACUCAUUUGUGAAGGGCAGGAUAUGCAAUAAAGA               t
 5  UAAUUAAAUGUGAGGAUAUGCUGGUCCUUGGAUCAGCAGAAGGCACAUGAGGAUCACCCAUGUAAUUUAUUUAU               t
 6  CGCAACAUACAGAAGGAGUAAAUUAGAAGUGUACUAGGAUAUGUAAACAUGAGGAUCACCCAUGUCGAAUGUGUUAUAGUUGCG               f
 7  GUGUCGGGAGGAUAUGCGUGGAUUGUUCUCGUAUGGUGUCUACAUGAGGAUCACCCAUGUAGAAGGUCUGGCGC               f
 8  AAAAGGUCAGGAUAUGCCCUCCUGGUGGAAAAGCCUGGUGGGCAGAAGGGACAUGAGGAUCACCCAUGUAAAAA               t
 9  GAGAAGAAGUUAGGAUAUUGGAUAGGGACGGAAUAAGAAGGAGCAAGACAUGAGGAUCACCCAUGUGUAGAAGAAGAGAUCCUC               t
10  GCACUGGAUGUAGGAUAUCAGGACGAUAAGUCCUGAGAAGGACAUGAGGAUCACCCAUGUGCUUAAACCAGUGCAUAUAAUAUA               f
11  CCUCGACAUGAGGAUCACCCAUGUCAGGAUAUUGUGUUUCGGGUUUUUUACCUUUAGGCAAGAAGGGAUGUGUG               f
12  CUGAGUAGUCAGGAUAUGCUGUACAAAAGUACAGCAGAAGGGAUUACAUGAGGAUCACCCAUGUUUACUUCAUG               t
13  CACGGUGAUGUAGGAUAUAUGCUGGAAUACAGCAUAGAAGGACAUGAGGAUCACCCAUGUAAAGUGUCUCCAAAUAACACCGUG               f
14  ACUGGGCGCCAACCCAUGUCUAUGGAGGAUAUUACUGCCGGUAUCUCACAUGAGGAUCACCCAUGUAAGAAGGCCAUAAGCACA               f
15  CGCUAAGAGAACUAUUCGAGAAGACAUGAGGAUCACCCAUGUAGAAGGACAACGGAAUAAACGUUGUAGGAUAUACACUUAGCG               f
